Measurement notes: NCI Yeast Anticancer Drug Screen. Data for the sgs1 mgt1 strain (AID 161);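 note: 0% = growth of cultures given vehicle only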
Measurement context: S. cerevisiae sgs1 mgt1 strain, at 50.0 µM, hits give high values
Compounds without any hit were thinned out: in the full panel of roughly 79,000, 15% have a hit.
Provide the reported growth inhibition of each item.
Numbers only, in %.

Consider the following illustrative entries.
[
  {
    "Compound": "CCN1CC(C(=O)NC(C)C(=O)O)Cc2ccccc21 (stereo not drawn)",
    "Assay readout": "growth inhibition",
    "Unit symbol": "%",
    "Numeric value": 9.15
  },
  {
    "Compound": "COC1/C=C\\OC2(C)Oc3c(C)c(O)c4c(O)c(c(CN(C)C)c(O)c4c3C2=O)NC(=O)/C(C)=C\\C=C/C(C)C(O)C(C)C(O)C(C)C(OC(C)=O)C1C (stereo not drawn)",
    "Assay readout": "growth inhibition",
    "Unit symbol": "%",
    "Numeric value": -16.7
  },
  {
    "Compound": "Cc1ccc(C2=CC(=O)/C(=C\\C(=O)c3ccc(Br)cc3)O2)c(C)c1",
    "Assay readout": "growth inhibition",
    "Unit symbol": "%",
    "Numeric value": 62.1
  },
  {
    "Compound": "CC(=O)CCCS(=O)(=O)c1ccccc1",
    "Assay readout": "growth inhibition",
    "Unit symbol": "%",
    "Numeric value": 0.9
  },
  {
    "Compound": "C#CCn1cnc2c1c(=O)n(C)c(=O)n2C",
    "Assay readout": "growth inhibition",
    "Unit symbol": "%",
    "Numeric value": -7.35
  }
]

Hi there! I need growth inhibition for each item below, if you can.
1. CC(=O)Oc1cccc2c1C(=O)C1CC(O)C3(C=O)OC(C)(C)OC2(C)C13 (stereo not drawn)
2. NC(=O)CNc1ccc(CC2CCOC2=O)cc1 (stereo not drawn)
3. [Cl][Pt+2][Cl].[NH-]CC(C[NH-])(Cc1ccccc1)Cc1ccccc1
4. COc1ccc(Cc2coc3ccccc3c2=O)cc1
5. COC(=O)NC(Cc1ccccc1)NC(=O)OC(C)(C)C (stereo not drawn)
6. Cc1cccnc1NCc1ccccn1
7. COC(=O)COc1ccccc1[N+](=O)[O-]

1: 5.95; 2: -5.9; 3: -2.2; 4: 13.7; 5: -20.5; 6: 15.1; 7: 0.6

# per-item lookup of growth inhibition; items listed below
1. CCCOCOCCC
2. CSc1cccc(NC(=S)NN/C(=N/S(=O)(=O)c2ccccc2)N2CCCC2)c1
3. CNc1nc(=S)nc(-c2ccccc2)s1
4. NC(CCSc1ccccc1)C(=O)O (stereo not drawn)
5. COc1ccc(C2=C/C(=C/c3ccc(N(CCC#N)CCC#N)cc3)C(=O)O2)cc1
6. C/C(C#N)=C1/Nc2ccccc2NC1=O
7. COC(=O)c1cc(=O)n(C)[nH]1

1. -13.2
2. -1.35
3. 11.3
4. -9.85
5. -16.4
6. -24.6
7. 0.75

Record growth inhibition per entry; entries follow.
1. CCOC(O)C(F)(F)F (stereo not drawn)
2. CC(=O)c1sc(Nc2nnc(-c3ccc(-c4nnc(Nc5nc(C)c(C(C)=O)s5)o4)cc3)o2)nc1C

1: 10.6; 2: -25

---

Measurement notes: NCI Yeast Anticancer Drug Screen. Data for the mlh1 rad18 strain (AID 175)
Measurement context: S. cerevisiae mlh1 rad18 strain growth inhibition; at 50.0 µM
About 79,000 compounds went through this panel and 15% of them were active in at least one assay; those are over-represented in the sample as a whole. Activity calls are given as the source filed them. Cut-off read from the data, not from the text of the source: active = growth inhibition above about 70%; inactive = the rest.
Respond using exactly one of the listed classes: class 1 = active, class 0 = inactive

Solved entries:
[
  {
    "Molecule": "O=C1CCCC(c2ccccc2)O1 (stereo not drawn)",
    "Assigned class": "class 0"
  },
  {
    "Molecule": "CC(C)C(=O)/C=C/c1ccc(Cl)c(Cl)c1",
    "Assigned class": "class 0"
  },
  {
    "Molecule": "COc1cc(/C=C/C(=N\\NC(=S)NN)c2sc(NNC(C)=O)nc2C)ccc1O",
    "Assigned class": "class 0"
  }
]

Write down the call the test reported for this molecule. Item: "Cc1cc(NCCN(C(C)C)C(C)C)nc(Nc2nc3cc(Cl)c(Cl)cc3[nH]2)n1"
class 0

// same read-out, input: "CCC(Nc1nncs1)Nc1nncs1"
class 0

And "Cn1c(=O)cc2[nH]c3ccccc3n2c1=O" ?
class 0

Param item: CN(C)CCN1CCc2c([nH]c3ccccc23)C1c1cccnc1 (stereo not drawn)
class 0

What do you get for "C(=Nc1cccc2ccccc12)Nc1cccc2ccccc12" ?
class 0

Now consider CC1=CCCC(C)(C)C1/C=C/C(C)=N/NC(=O)Nc1ccccc1 (stereo not drawn) .
class 0

Item: "Nc1cc(Cl)c(N(CCO)C2=NCCN2)c(Cl)c1"
class 0

Request: "CC(=O)Nc1nnc(S(C)(=O)=O)s1"
class 0

Also, CC(=O)CC(=O)N1CCCC(C)C1 (stereo not drawn) please.
class 0

Can you handle "C[Si](C)(C)CCCO" next?
class 0

Also "c1ccc(SCCCCSc2ccccc2)cc1" ?
class 0

Now give it for "CCOC(=O)NC(=O)CC#N" too.
class 0

What would you report for "Cc1c(O)ccc2c(O)c(NC(=O)c3ccc4c(c3)CCC(C)(C)O4)c(=O)oc12" ?
class 0

Same lookup for C=C1CC23CC[C@H]4[C@@](C)(CCC[C@@]4(C)C(=O)OC4OC(CO)C(O)C(O)C4O)[C@@H]2CC[C@@]1(OC1OC(CO)C(O)C(O)C1OC1OC(CO)C(O)C(O)C1O)C3 (stereo partly drawn) , please.
class 0

Try this molecule too: "CCC(C(=O)O)=C1CCCCC1"
class 0

Next record, please: CCOC1OC(C2COC(=S)O2)C(O)C1O (stereo not drawn)
class 0

Same again, this time with "CCOC(=O)CC[C@H](NC(=O)c1nc[nH]c1[N+](=O)[O-])C(=O)OCC"
class 0

Now the same for "O=C(c1ccc(Cl)cc1)c1ccc2ccccc2c1"
class 0

One more molecule: "COC(=O)c1cccc2c1cc(Br)c1ccccc12"
class 0

How about "CCOc1ccc(C(=O)CCC(=O)Nc2ccc(Br)cc2)cc1" ?
class 0
